meta.source: the supplement of paper PMC3545927

Target: furin, P09958;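 further: purified furin at 1:10 enzyme:substrate in 50 mM HEPES pH 7.5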
Sequence (P09958 whole entry): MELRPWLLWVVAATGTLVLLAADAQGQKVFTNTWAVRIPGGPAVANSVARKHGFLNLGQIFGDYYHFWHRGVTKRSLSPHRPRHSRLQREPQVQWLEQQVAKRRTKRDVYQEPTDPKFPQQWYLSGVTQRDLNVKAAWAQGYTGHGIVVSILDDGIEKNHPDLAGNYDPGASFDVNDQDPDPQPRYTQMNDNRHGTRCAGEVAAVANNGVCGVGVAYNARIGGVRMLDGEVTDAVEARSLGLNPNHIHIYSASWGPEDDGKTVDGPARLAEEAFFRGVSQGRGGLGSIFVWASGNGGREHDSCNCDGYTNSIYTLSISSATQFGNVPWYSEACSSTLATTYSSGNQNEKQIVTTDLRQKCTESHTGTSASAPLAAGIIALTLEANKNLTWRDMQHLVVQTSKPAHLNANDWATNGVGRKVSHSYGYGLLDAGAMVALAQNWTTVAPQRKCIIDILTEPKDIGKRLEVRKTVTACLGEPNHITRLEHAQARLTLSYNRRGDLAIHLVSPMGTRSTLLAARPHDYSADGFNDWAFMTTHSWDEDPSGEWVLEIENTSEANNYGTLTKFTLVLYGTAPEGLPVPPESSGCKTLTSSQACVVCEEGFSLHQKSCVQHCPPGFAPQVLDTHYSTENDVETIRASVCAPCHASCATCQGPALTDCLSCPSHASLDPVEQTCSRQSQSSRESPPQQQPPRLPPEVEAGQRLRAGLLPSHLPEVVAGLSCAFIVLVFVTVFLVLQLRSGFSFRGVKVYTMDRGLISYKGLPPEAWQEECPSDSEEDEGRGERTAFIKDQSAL
Test: furin cleavage Z-score vs untreated control; higher = more cleavage, active = 3.5 or more, inactive = 1 or less, 8 variable residues between constant flanks
Settings: 15 min
The list shows a part of the results. No count for the full screen is at hand.
Measurement label: furin cleavage Z-score

1. CAYSPGEINRAGNASASA [HC1609]	1.01
2. CAEVGTSTWVAGNASASA [HC2196]	1.37
3. CAAPHREKRGAGNASASA [FS-398]	11.4
4. CADLEVVTSTAGNASASA [HC2271]	0.142
5. CARGDSRGSLAGNASASA [HC733]	-0.316
6. CARIGRAVRPAGNASASA [FS-1720]	6.97
7. CAARGRYSRGAGNASASA [FS-1622]	0.971
